Experiment: TOX21_p53_BLA_p2_viability: Viability Assessment in the Tox21 HCT-116 p53 Agonism Beta-lactamase Assay, Phase 2 (AID 2283591);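 note: compound exposure lasted 16 h at 37 °C; actives lower the ATP signal meaning cytotoxicity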
Records with an inconclusive call do not appear. Calls of active or inactive are those of the source. Rule for the calls: active = hit-call score of the fitted dose curve at least 0.9, where 1 is the maximum; inconclusive = response in the unintended direction; inactive = score below 0.9.
Can you answer with just one of these options? active, inactive

Example entries and their recorded answers appear below.
[[record]]
molecule = "ClCc1ccccn1"
group = "inactive"

[[record]]
molecule = "CC(C)C1CCC(Cc2ccc(Cl)cc2)C1(O)Cn1cncn1 (stereo not drawn)"
group = "active"

[[record]]
molecule = "C[C@@H]1C[C@@H]([C@H](O)CC2CC(=O)NC(=O)C2)C(=O)[C@@H](C)C1"
group = "inactive"

[[record]]
molecule = "CC(C)(OO)c1ccccc1"
group = "inactive"

[[record]]
molecule = "C=C(C)C(=O)[O][Sn]([CH2]CCC)([CH2]CCC)[CH2]CCC"
group = "active"


Task: Dear all, I need the recorded test outcome for N#CN=C(N)N , thank you.
Result: inactive

Task: For this molecule, state the assay outcome: N#Cc1ccccn1
Result: inactive

Task: Called result for CNC
Result: inactive
